Source listed as ChEMBL document CHEMBL4831498.

experiment: Solubility of the compound at pH 7.4 by potentiometric titration method; type: physicochemical; conditions: buffer
metric name: solubility (µM)
Form entry: value (µM) — number only.

| structure smiles | metric name | observed measurement |
| --- | --- | --- |
| Cc1c(F)c(N)cc(C(=O)Nc2cc(-n3cc(C(=O)O)nn3)ccc2N2CCN(C)CC2)c1Cl | solubility | 349 |
| Cc1c(F)c(N)cc(C(=O)Nc2cc(-c3ccc(C(=O)O)cc3)ccc2N2CCN(C)CC2)c1Cl | solubility | 40.5 |
| Cc1c(F)c(N)cc(C(=O)Nc2cc(-c3ccc(NC(=O)C4CCN(C)CC4)cc3)ccc2N2CCN(C)CC2)c1Cl | solubility | 3.9 |

# context switch: different compound, same solubility
Consider Cc1c(F)c(N)cc(C(=O)Nc2cc(-n3cc(C(=O)NC4CCN(C)CC4)nn3)ccc2N2CCN(C)CC2)c1Cl . Its measured solubility is 343

---

test: Solubility of the compound at pH 7.4 by potentiometric titration method; assay type: physicochemical; settings: buffer
metric name: solubility (µM)
The figure you give is taken to be in µM; do not add the unit.

| structure smiles | units text | solubility |
| --- | --- | --- |
| COC(=O)c1cn(-c2ccc(N3CCN(C)CC3)c(NC(=O)c3cc(N)c(F)c(C)c3Cl)c2)nn1 | µM | 41.5 |
| COC(=O)c1ccc(-c2ccc(N3CCN(C)CC3)c(NC(=O)c3cc(N)c(F)c(C)c3Cl)c2)cc1 | µM | 3.7 |

# solubility of Cc1c(F)c(N)cc(C(=O)Nc2cc(-n3cc(C(=O)N4CCOCC4)nn3)ccc2N2CCN(C)CC2)c1Cl = 361

# solubility (compound: Cc1c(F)c(N)cc(C(=O)Nc2cc(-c3ccc(C(=O)N4CCOCC4)cc3)ccc2N2CCN(C)CC2)c1Cl ) is 48.2

---

Known solubility of a selection of compounds
test: Solubility of the compound at pH 7.4 by potentiometric titration method; format: physicochemical; conditions: buffer
Give the value, in units of µM, as a plain number.

| structure smiles | observed measurement |
| --- | --- |
| Cc1c(F)c(N)cc(C(=O)Nc2cc(-n3cc(C(=O)NC4CCOCC4)nn3)ccc2N2CCN(C)CC2)c1Cl | 95.6 |

solubility reported for this compound Cc1c(F)c(N)cc(C(=O)Nc2cc(-c3ccc(NC(=O)CCCN)cc3)ccc2N2CCN(C)CC2)c1Cl : 199

Input Cc1c(F)c(N)cc(C(=O)Nc2cc(-c3ccc(NC(=O)C4CCOCC4)cc3)ccc2N2CCN(C)CC2)c1Cl . Output solubility: 126

solubility reading for Cc1c(F)c(N)cc(C(=O)Nc2cc(-n3cc(C(=O)NCCCN4CCOCC4)nn3)ccc2N2CCN(C)CC2)c1Cl : 246
